# System: A549
# experimental.protocol: Antiproliferative activity against human A549 cells incubated for 48 hrs by MTT assay
# Type: functional, cell-based
# measurement.conditions: A549, 48 h
pIC50: −log10 of the molar value.
recorded.endpoint: pIC50

Known results for compounds:
compound	pIC50
O=C(/C=C/c1ccc(O)cc1)Nc1cc2c(Nc3ccc(Cl)c(Cl)c3)ncnc2s1	4.46
COc1ccc(/C=C/C(=O)Nc2cc3ncnc(Nc4ccc(F)c(Cl)c4)c3s2)cc1	4.64

[P] N#Cc1cccc(Nc2ncnc3cc(NC(=O)/C=C/c4ccccc4)sc23)c1
[Q] O=C(/C=C/c1ccccc1)Nc1cc2c(Nc3ccc(Cl)c(Cl)c3)ncnc2s1
IN: Two entries are listed, P and Q . Which one carries the higher pIC50? Respond with the label that goes with your answer.
OUT: Q
(Q: 5.12, P: 4.77)

* * *

# Tested on: U-87 MG
# experimental.protocol: Antiproliferative activity against human U87 cells incubated for 48 hrs by MTT assay
# Format: functional, cell-based, U-87MG ATCC
pIC50: −log10 of the molar value.
recorded.endpoint: pIC50

O=C(/C=C/c1ccccc1)Nc1cc2c(Nc3cc(Cl)cc(Cl)c3)ncnc2s1 5.35

[A] C#Cc1cccc(Nc2ncnc3cc(OCCOC)c(OCCOC)cc23)c1
[B] COc1ccc(/C=C/C(=O)Nc2cc3c(Nc4ccc(Cl)c(Cl)c4)ncnc3s2)cc1
IN: Problem: Given the entries A and B , determine which has the lower reported pIC50. Respond with the label that goes with your answer.
OUT: A
(A: 4.50, B: 5.36)

* * *

# System: HepG2
# experimental.protocol: Antiproliferative activity against human HepG2 cells incubated for 48 hrs by MTT assay
# Type: functional, cell-based
# measurement.conditions: HepG2, 48 h
pIC50: −log10 of the molar value.
recorded.endpoint: pIC50

Known results for molecules:
N#Cc1cccc(Nc2ncnc3cc(NC(=O)/C=C/c4ccccc4)sc23)c1 4.80
O=C(/C=C/c1ccccc1)Nc1cc2ncnc(Nc3cc(Cl)cc(Cl)c3)c2s1 4.97
O=C(/C=C/c1ccccc1)Nc1cc2ncnc(Nc3ccc(F)c(Cl)c3)c2s1 4.97
COc1ccc(/C=C/C(=O)Nc2cc3ncnc(Nc4ccc(F)c(Cl)c4)c3s2)cc1 4.86
O=C(/C=C/c1ccccc1)Nc1cc2c(Nc3cccc(Cl)c3F)ncnc2s1 4.35
C#Cc1cccc(Nc2ncnc3sc(NC(=O)/C=C/c4ccccc4)cc23)c1 4.24

[I] O=C(/C=C/c1ccccc1)Nc1cc2c(Nc3ccc(Cl)c(Cl)c3)ncnc2s1
[II] C#Cc1cccc(Nc2ncnc3cc(NC(=O)/C=C/c4ccccc4)sc23)c1
IN: Two entries are listed, I and II . Which one carries the higher pIC50? Respond with the label that goes with your answer.
OUT: II

* * *

# Test system: A549
# experimental.protocol: Antiproliferative activity against human A549 cells incubated for 48 hrs by MTT assay
# Format: functional, cell-based
# measurement.conditions: A549, 48 h
pIC50: −log10 of the molar value.
recorded.endpoint: pIC50

Known results for molecules:
O=C(/C=C/c1ccccc1)Nc1cc2c(Nc3cccc(Cl)c3F)ncnc2s1 4.58
O=C(/C=C/c1ccccc1)Nc1cc2c(Nc3ccc(F)c(Cl)c3)ncnc2s1 4.95
O=C(/C=C/c1ccccc1)Nc1cc2ncnc(Nc3ccc(F)c(Cl)c3)c2s1 5.18

[I] COc1ccc(/C=C/C(=O)Nc2cc3c(Nc4ccc(Cl)c(Cl)c4)ncnc3s2)cc1
[II] O=C(/C=C/c1ccccc1)Nc1cc2ncnc(Nc3ccc(Cl)c(Cl)c3)c2s1
IN: Two entries are listed, I and II . Which one carries the higher pIC50? Respond with the label that goes with your answer.
OUT: I
(I: 5.48, II: 4.71)

* * *

# System: PC-3
# experimental.protocol: Antiproliferative activity against human PC3 cells incubated for 48 hrs by MTT assay
# Type: functional, cell-based
# measurement.conditions: PC-3, 48 h
recorded.endpoint: IC50 (nM)

O=C(/C=C/c1ccccc1)Nc1cc2c(Nc3cccc(Cl)c3F)ncnc2s1 400
O=C(/C=C/c1ccccc1)Nc1cc2c(Nc3cc(Cl)cc(Cl)c3)ncnc2s1 390
O=C(/C=C/c1ccccc1)Nc1cc2ncnc(Nc3ccc(Cl)c(Cl)c3)c2s1 260
O=C(/C=C/c1ccccc1)Nc1cc2ncnc(Nc3ccc(F)c(Cl)c3)c2s1 200
C#Cc1cccc(Nc2ncnc3cc(NC(=O)/C=C/c4ccccc4)sc23)c1 700
N#Cc1cccc(Nc2ncnc3cc(NC(=O)/C=C/c4ccccc4)sc23)c1 540
COc1ccc(/C=C/C(=O)Nc2cc3ncnc(Nc4ccc(F)c(Cl)c4)c3s2)cc1 100
COc1ccc(/C=C/C(=O)Nc2cc3c(Nc4cc(Cl)cc(Cl)c4)ncnc3s2)cc1 450

[1] COc1ccc(/C=C/C(=O)Nc2cc3c(Nc4ccc(Cl)c(Cl)c4)ncnc3s2)cc1
[2] C#Cc1cccc(Nc2ncnc3sc(NC(=O)/C=C/c4ccccc4)cc23)c1
IN: Two entries are listed, 1 and 2 . Which one carries the higher IC50? Respond with the label that goes with your answer.
OUT: 1
(1: 790 nM, 2: 400 nM)

* * *

# Tested on: SK-OV-3
# experimental.protocol: Antiproliferative activity against human SKOV3 cells incubated for 48 hrs by MTT assay
# Type: functional, cell-based
# measurement.conditions: SK-OV-3, 48 h
recorded.endpoint: IC50 (µM)

O=C(/C=C/c1ccccc1)Nc1cc2c(Nc3cc(Cl)cc(Cl)c3)ncnc2s1 10.9

[P] COc1ccc(/C=C/C(=O)Nc2cc3c(Nc4ccc(Cl)c(Cl)c4)ncnc3s2)cc1
[Q] C#Cc1cccc(Nc2ncnc3cc(OCCOC)c(OCCOC)cc23)c1
IN: Problem: Given the entries P and Q , determine which has the lower reported IC50. Respond with the label that goes with your answer.
OUT: P

* * *

# System: SW480
# experimental.protocol: Antiproliferative activity against human SW480 cells incubated for 48 hrs by MTT assay
# Assay type: functional, cell-based
# measurement.conditions: SW480, 48 h
pIC50: −log10 of the molar value.
recorded.endpoint: pIC50

compound	pIC50
O=C(/C=C/c1ccccc1)Nc1cc2c(Nc3cc(Cl)cc(Cl)c3)ncnc2s1	5.31

[1] COc1ccc(/C=C/C(=O)Nc2cc3c(Nc4ccc(Cl)c(Cl)c4)ncnc3s2)cc1
[2] C#Cc1cccc(Nc2ncnc3cc(OCCOC)c(OCCOC)cc23)c1 [ERLOTINIB]
IN: Problem: Given the entries 1 and 2 , determine which has the lower reported pIC50. Respond with the label that goes with your answer.
OUT: 2
(2: 4.64, 1: 5.24)

* * *

Below, each entry is listed with its recorded IC50.
# Tested on: MRC5
# experimental.protocol: Cytotoxicity against human MRC5 cells incubated for 48 hrs by MTT assay
# Type: cell-based
# measurement.conditions: MRC5, 48 h
Give the quantity in µM, number only.

IN: Note IC50 for the compound shown: COc1ccc(/C=C/C(=O)Nc2cc3c(Nc4ccc(Cl)c(Cl)c4)ncnc3s2)cc1
OUT: 18.7

IN: Note IC50 for the compound shown: O=C(/C=C/c1ccccc1)Nc1cc2c(Nc3cc(Cl)cc(Cl)c3)ncnc2s1
OUT: 28.8

* * *

# Tested on: PC-3
# experimental.protocol: Antiproliferative activity against human PC3 cells incubated for 48 hrs by MTT assay
# Assay type: functional, cell-based
# measurement.conditions: PC-3, 48 h
pIC50: −log10 of the molar value.
recorded.endpoint: pIC50

[I] O=C(/C=C/c1ccccc1)Nc1cc2c(Nc3ccc(Cl)c(Cl)c3)ncnc2s1
[II] O=C(/C=C/c1ccccc1)Nc1cc2ncnc(Nc3cc(Cl)cc(Cl)c3)c2s1
IN: Problem: Given the entries I and II , determine which has the lower reported pIC50. Respond with the label that goes with your answer.
OUT: I

* * *

# Tested on: A549
# experimental.protocol: Antiproliferative activity against human A549 cells incubated for 48 hrs by MTT assay
# Type: functional, cell-based
# measurement.conditions: A549, 48 h
pIC50: −log10 of the molar value.
recorded.endpoint: pIC50

Known results for compounds:
compound	data.value
C#Cc1cccc(Nc2ncnc3sc(NC(=O)/C=C/c4ccccc4)cc23)c1	5.00
COc1ccc(/C=C/C(=O)Nc2cc3c(Nc4cc(Cl)cc(Cl)c4)ncnc3s2)cc1	4.66

[1] C#Cc1cccc(Nc2ncnc3cc(NC(=O)/C=C/c4ccccc4)sc23)c1
[2] C#Cc1cccc(Nc2ncnc3cc(OCCOC)c(OCCOC)cc23)c1 [ERLOTINIB]
[3] O=C(/C=C/c1ccccc1)Nc1cc2c(Nc3cc(Cl)cc(Cl)c3)ncnc2s1
[4] O=C(/C=C/c1ccccc1)Nc1cc2ncnc(Nc3cc(Cl)cc(Cl)c3)c2s1
IN: List the 4 entries from lowest pIC50 to highest pIC50 value. Reply with the item labels sorted in the order that was asked for.
OUT: 1, 4, 2, 3
(1: 4.58, 4: 4.90, 2: 5.42, 3: 7.40)

* * *

# System: HepG2
# experimental.protocol: Antiproliferative activity against human HepG2 cells incubated for 48 hrs by MTT assay
# Type: functional, cell-based
# measurement.conditions: HepG2, 48 h
recorded.endpoint: IC50 (µM)

Known results for molecules:
molecule	experimental.target	IC50 (µM)
O=C(/C=C/c1ccccc1)Nc1cc2c(Nc3ccc(F)c(Cl)c3)ncnc2s1	HepG2	22.8
C#Cc1cccc(Nc2ncnc3cc(OCCOC)c(OCCOC)cc23)c1 [ERLOTINIB]	HepG2	28.8
COc1ccc(/C=C/C(=O)Nc2cc3c(Nc4ccc(Cl)c(Cl)c4)ncnc3s2)cc1	HepG2	30.6
O=C(/C=C/c1ccc(O)cc1)Nc1cc2c(Nc3ccc(Cl)c(Cl)c3)ncnc2s1	HepG2	42.9

[1] O=C(/C=C/c1ccccc1)Nc1cc2c(Nc3cc(Cl)cc(Cl)c3)ncnc2s1
[2] COc1ccc(/C=C/C(=O)Nc2cc3c(Nc4cc(Cl)cc(Cl)c4)ncnc3s2)cc1
[3] O=C(/C=C/c1ccccc1)Nc1cc2ncnc(Nc3ccc(Cl)c(Cl)c3)c2s1
IN: Sort these molecules on IC50 so the largest reading comes first. Reply with the item labels sorted in the order that was asked for.
OUT: 2, 1, 3
(2: 41.8 µM, 1: 21.8 µM, 3: 13.4 µM)
